measurement.target: Peptide deformylase (Pseudomonas aeruginosa (strain ATCC 15692 / PAO1 / 1C / PRS 101 / LMG12228), UniProt Q9I7A8)
Sequence (Q9I7A8 whole entry): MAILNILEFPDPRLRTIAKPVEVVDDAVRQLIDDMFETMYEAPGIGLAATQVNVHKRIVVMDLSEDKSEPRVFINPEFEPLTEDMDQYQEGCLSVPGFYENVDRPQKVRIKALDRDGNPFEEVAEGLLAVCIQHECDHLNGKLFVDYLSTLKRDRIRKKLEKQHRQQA
experimental.protocol: Inhibition of Pseudomonas aeruginosa peptide deformylase after 10 mins by fluorescence assay
pIC50: recorded values
By convention, pIC50 is the negative base-10 log of a molar concentration.

Sample answers from the record:
smiles.entry: CCCC[C@H](CN(O)C=O)C(=O)[C@@H](NC(=O)c1ccncc1)C(C)C
pIC50: 7.28

smiles.entry: CCCC[C@H](CN(O)C=O)C(=O)[C@@H](NC(=O)NC(C)C)C(C)C
pIC50: 7.80

smiles.entry: CCCC[C@H](CN(O)C=O)C(=O)[C@@H](NC(=O)c1ccccc1)C(C)C
pIC50: 7.29

smiles.entry: COc1ccccc1NC(=O)N[C@@H](C(=O)N(CC(=O)NO)CC1CCCC1)C(C)(C)C
pIC50: 7.54

Lab note: next molecule to report on.
What does the data say about its pIC50? Entry: CCCC[C@H](CN(O)C=O)C(=O)[C@@H](NC(=O)c1ccc2ccccc2n1)C(C)C 8.10
